MIC values, listed per item
Test system: Staphylococcus aureus V41
TEST NAME: MIC, standard agar-dilution assay, Staphylococcus aureus V41
Assay type: cell-based
CONDITION: Staphylococcus aureus V41; penicillin-resistant strain; agar dilution

{"columns": ["MOLECULE", "MIC / µg/mL"],
 "data": [
  ["CCC1OC(=O)CC(O)C(C)C(OC2OC(C)C(O)C(N(C)C)C2O)C(CCOc2cc(Cl)cc(Cl)c2)CC(C)C(=O)C=CC(C)=CC1COC1OC(C)C(O)C(OC)C1OC (stereo not drawn)", 0.25],
  ["CCC1OC(=O)CC(O)C(C)C(OC2OC(C)C(OC3CC(C)(O)C(O)C(C)O3)C(N(C)C)C2OC(C)=O)C(CCOc2ccccc2)CC(C)C(=O)C=CC(C)=CC1COC1OC(C)C(O)C(OC)C1OC (stereo not drawn)", 2],
  ["CCC1OC(=O)CC(O)C(C)C(OC2OC(C)C(O)C(N(C)C)C2OC(C)=O)C(CCOc2ccccc2)CC(C)C(=O)C=CC(C)=CC1COC1OC(C)C(O)C(OC)C1OC (stereo not drawn)", 0.25],
  ["CCC1OC(=O)CC(O)C(C)C(OC2OC(C)C(OC3CC(C)(O)C(O)C(C)O3)C(N(C)C)C2O)C(CCOc2ncnc3ccccc23)CC(C)C(=O)C=CC(C)=CC1COC1OC(C)C(O)C(OC)C1OC (stereo not drawn) [Compound 19a]", 0.5],
  ["CCC(=O)OC1C(OC2C(CCCl)CC(C)C(=O)C=CC(C)=CC(COC3OC(C)C(O)C(OC)C3OC)C(CC)OC(=O)CC(O)C2C)OC(C)C(OC2CC(C)(O)C(O)C(C)O2)C1N(C)C (stereo not drawn)", 1],
  ["CCC1OC(=O)CC(O)C(C)C(OC2OC(C)C(O)C(N(C)C)C2O)C(CCOc2ccc(CO)cc2)CC(C)C(=O)C=CC(C)=CC1COC1OC(C)C(O)C(OC)C1OC (stereo not drawn) [Compound 51a]", 0.5],
  ["CCC1OC(=O)CC(O)C(C)C(OC2OC(C)C(O)C(N(C)C)C2O)C(CCOc2nnc(-c3ccccc3)c(-c3ccccc3)n2)CC(C)C(=O)C=CC(C)=CC1COC1OC(C)C(O)C(OC)C1OC (stereo not drawn)", 0.5],
  ["CCC1OC(=O)CC(O)C(C)C(OC2OC(C)C(O)C(N(C)C)C2O)C(CCNC(=O)COc2ccccc2)CC(C)C(=O)C=CC(C)=CC1COC1OC(C)C(O)C(OC)C1OC (stereo not drawn) [Compound 51c]", 0.25],
  ["CCC1OC(=O)CC(O)C(C)C(OC2OC(C)C(OC(C)=O)C(N(C)C)C2OC(C)=O)C(CCOc2ccccc2)CC(C)C(=O)C=CC(C)=CC1COC1OC(C)C(O)C(OC)C1OC (stereo not drawn)", 0.5]
]}

----------
Listing of recorded MIC by entry.
Tested on: Haemophilus influenzae R252
TEST NAME: MIC, standard agar-dilution assay, Haemophilus influenzae R252
Format: cell-based
CONDITION: Haemophilus influenzae R252; ampicillin-resistant strain; agar dilution

{"columns": ["MOLECULE", "UNIT STRING", "MIC"],
 "data": [
  ["CCC1OC(=O)CC(O)C(C)C(OC2OC(C)C(O)C(N(C)C)C2O)C(CCS(=O)(=O)c2ccc(C)cc2)CC(C)C(=O)C=CC(C)=CC1COC1OC(C)C(O)C(OC)C1OC (stereo not shown)", "µg/mL", 8],
  ["CCC(=O)OC1C(C)OC(OC2C(CCN3C(=O)c4ccccc4C3=O)CC(C)C(=O)C=CC(C)=CC(COC3OC(C)C(O)C(OC)C3OC)C(CC)OC(=O)CC(O)C2C)C(OC(=O)CC)C1N(C)C (stereo not shown)", "µg/mL", 64],
  ["CCC1OC(=O)CC(O)C(C)C(OC2OC(C)C(O)C(N(C)C)C2O)C(CCOc2ccc(Oc3ccccc3)cc2)CC(C)C(=O)C=CC(C)=CC1COC1OC(C)C(O)C(OC)C1OC (stereo not shown)", "µg/mL", 16],
  ["CC[C@H]1OC(=O)C[C@@H](O)[C@H](C)[C@@H](O[C@@H]2O[C@H](C)[C@H](O)[C@H](N(C)C)[C@H]2O)[C@@H](CCOc2ccccc2)C[C@@H](C)C(=O)/C=C/C(C)=C/[C@@H]1COC1O[C@H](C)[C@@H](O)[C@@H](OC)[C@H]1OC (stereo partly shown)", "µg/mL", 32]
]}

Data provenance: patent US4443436A
